System: blackgrass
Experiment: Test B pre/postemergence blackgrass
Type: in vivo, Alopecurus myosuroides
Conditions: Postemergence, Rate 62 g/ha; scale of 0 to 10, 0 is no effect, 10 is complete control
Blackgrass plant response rating for assorted molecules
// keep it numeric: no unit symbol after the value

Record smiles: CC(C)N(C(=O)n1oc(=O)n(CC2CC2)c1=O)c1ccc(F)cc1F
Measured parameter: Blackgrass plant response rating
Measured: 2
--
Record smiles: CC(C)N(C(=O)n1oc(=O)n(CCC2OCCCO2)c1=O)c1ccc(Cl)cc1
Measured parameter: Blackgrass plant response rating
Measured: 0
--
Record smiles: CC(C)N(C(=O)n1oc(=O)n(C[Si](C)(C)C)c1=O)c1ccc(Cl)cc1
Measured parameter: Blackgrass plant response rating
Measured: 0
--
Record smiles: CC(C)N(C(=O)n1oc(=O)n(CCc2ccccc2)c1=O)c1ccccc1
Measured parameter: Blackgrass plant response rating
Measured: 0
--
Record smiles: CC(C)N(C(=O)n1oc(=O)n(CC2CCC2)c1=O)c1ccc(Cl)cc1
Measured parameter: Blackgrass plant response rating
Measured: 0

Check blackgrass data and give Blackgrass plant response rating for CC(C)N(C(=O)n1oc(=O)n(C[Si](C)(C)C)c1=O)c1ccc(F)cc1F .
4

---

Test system: wheat
Experiment: Test B pre/postemergence wheat
Type: in vivo, Triticum aestivum
Conditions: Postemergence, Rate 500 g/ha; scale 0 to 10, 0 is no effect, 10 is complete control
Measured parameter: Plant response rating, Wheat

In the examples that follow, each entry is paired with its recorded Plant response rating, Wheat.
Compound: CC(=O)OCCCCn1c(=O)on(C(=O)N(c2ccc(F)cc2F)C(C)C)c1=O [Compound 506]
Plant response rating, Wheat: 4
--
Compound: CC(C)N(C(=O)n1oc(=O)n(CCCF)c1=O)c1ccc(F)cc1F [Compound 500]
Plant response rating, Wheat: 5
--
Compound: CCOC(=O)C=C(Cn1c(=O)on(C(=O)N(c2ccc(Cl)cc2)C(C)C)c1=O)OCC [Compound 549]
Plant response rating, Wheat: 2

Turning now to a further compound:
Please indicate recorded Plant response rating, Wheat of CCC=CCn1c(=O)on(C(=O)N(c2ccc(F)cc2F)C(C)C)c1=O [Compound 523] measured with wheat.
2

---

Tested on: crabgrass
Test: Test B pre/postemergence crabgrass
Format: in vivo, Digitaria sanguinalis
Conditions: Preemergence, Rate 125 g/ha; 0 is no effect, 10 is complete control
Measured parameter: Crabgrass plant response rating (0 to 10 scale)
// return just the number, without any unit appended

Please review the entries below; each comes with its answer.
Compound: CCN(Cc1ccccc1)C(=O)n1oc(=O)n(C(C)C)c1=O [Compound 166]
Target under test: crabgrass
Measured: 4
//
Compound: Cc1nc(C)c(-n2c(=O)on(C(=O)N(c3ccc(F)cc3)C(C)C)c2=O)s1 [Compound 198]
Target under test: crabgrass
Measured: 0
//
Compound: C=CCn1c(=O)on(C(=O)N(c2ccc(F)cc2F)C2CC2)c1=O [Compound 127]
Target under test: crabgrass
Measured: 0
//
Compound: Cc1noc(C)c1-n1c(=O)on(C(=O)N(c2ccc(F)cc2F)C(C)C)c1=O [Compound 156]
Target under test: crabgrass
Measured: 4

// switching to the query compound
Assign Crabgrass plant response rating (0 to 10 scale) to the following record: Cc1ccccc1-n1c(=O)on(C(=O)N(c2cccc(F)c2F)C(C)C)c1=O [Compound 171]
7

Where do these numbers come from? They come from patent US6737383B1.
